# Test Details: qHTS Assay for Lipid Storage Modulators (AID 1519)
# Measurement Setup: Drosophila S3 cells, BODIPY lipid droplet/cell ratio, laser cytometry; measured here: cell count channel max response; cells loaded with oleic acid
Records with an inconclusive call do not appear.
Measured max response by item
Lab book: enter the figure in %, no units written.

| Molecule | max response (%) |
| --- | --- |
| CNC(C)[C@@H](O)c1ccccc1 (stereo not given in full) | 19.3 |
| C[N+]1([O-])[C@@H]2CC(OC(=O)[C@@H](CO)c3ccccc3)C[C@@H]1[C@H]1O[C@H]12 (stereo not given in full) | 26 |
| CCC12C=CCN3CCC4(c5ccc(OC)cc5N(C)C4[C@@](O)(C(=O)OC)C1OC(C)=O)C32 (stereo not given in full) | 13.3 |
| COC(=O)COc1cc(Cl)c(Cl)cc1Cl | 13.1 |
| C[C@@H]1O[C@H](O[C@@H]2CC[C@@]3(C=O)[C@H]4CC[C@@]5(C)[C@@H](C6=CC(=O)OC6)CC[C@@]5(O)[C@@H]4CC[C@]3(O)C2)C[C@H](O)[C@@H]1O | -14.4 |

Q: So what does the record say about max response for CC1C(=O)OC2CCN3CC=C(COC(=O)[C@](C)(O)[C@]1(C)O)C23 (stereo not given in full) ?
A: -2.74

Q: Consider the molecule shown here: c1ccc(CN2CC[C@@]3(CCCNC3)C2)cc1 What is its recorded max response?
A: 8.29

Q: Give the measured max response of Nc1ncn[nH]1 .
A: 9.75

Q: Please report the recorded max response for O=C(O)c1nn(Cc2ccc(Cl)c(Cl)c2)c2ccccc12 .
A: 10.4

Q: So what does the record say about max response for CC(=O)N1CC2CC(C1)c1cccc(=O)n1C2 (stereo not given) ?
A: -29.2

Q: Field request: max response | item: C/C=C/c1ccc2c(c1)OCO2
A: 10.4

Q: Returns the measured max response for the input molecule. Input: CC(C)(C)[C@]1(O)C[C@@H]2OC(=O)C[C@@]23C(=O)O[C@@H]2OC(=O)[C@H](O)[C@]213
A: 5.67
